# Test system: ATP;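 further: ATP exposure 15 min at 22 °C before imaging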
# PROTOCOL SUMMARY: switch fluorescence ratio, 500 uM ATP over buffer (Cy3 cluster intensity, sum of 5 cycles each) (fold (ratio)); higher = stronger signal-on switching upon ATP binding; sequences stand for … in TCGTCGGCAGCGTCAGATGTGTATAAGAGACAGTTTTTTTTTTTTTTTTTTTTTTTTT…TC
# CONDITIONS: aptamer strand: ATP DNA aptamer (quencher-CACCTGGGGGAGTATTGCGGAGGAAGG + anchor), 100 nM annealed; ATP concentration: 500 uM
QUANTITY: switch fluorescence ratio
The answer should be written as a number, with no unit following it.

Sample records with switch fluorescence ratio:
   chain_sequence  reported_value
0      TCCGGTCAGC            1.13
1      GGGATTAGTC            1.05
2      TATCTGCTAC            3.67
3      GGGTCTGGAG               1
4      CATCGAGCAA            3.77

QUERY: Report switch fluorescence ratio for "GCTAAAGGGA" please.
RESULT: 1.03

QUERY: Report switch fluorescence ratio for "CCGGAACGGT" please.
RESULT: 0.986

----------
The entries below are paired with their reported switch fluorescence ratio.
# Tested on: ATP;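 further: ATP exposure 15 min at 22 °C before imaging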
# PROTOCOL SUMMARY: switch fluorescence ratio, 500 uM ATP over buffer (Cy3 cluster intensity, sum of 5 cycles each) (fold (ratio)); higher = stronger signal-on switching upon ATP binding; sequences stand for … in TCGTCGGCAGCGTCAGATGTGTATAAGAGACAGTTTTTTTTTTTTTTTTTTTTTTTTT…TC
# CONDITIONS: aptamer strand: ATP DNA aptamer (quencher-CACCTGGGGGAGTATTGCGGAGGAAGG + anchor), 100 nM annealed; ATP concentration: 500 uM

>>> df
   chain_sequence  experimental_target                   quantity  reported_value
0      GACGGGATGG                  ATP  switch fluorescence ratio           0.993

QUERY: Entry "GCAGTGGGTG" , system ATP: what switch fluorescence ratio was measured?;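 further: ATP exposure 15 min at 22 °C before imaging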
RESULT: 0.998

QUERY: Entry "TGCTTGGGTC" , system ATP: what switch fluorescence ratio was measured?;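 further: ATP exposure 15 min at 22 °C before imaging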
RESULT: 1.01

----------
# Test system: ATP;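 further: ATP exposure 15 min at 22 °C before imaging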
# PROTOCOL SUMMARY: switch fluorescence ratio, 500 uM ATP over buffer (Cy3 cluster intensity, sum of 5 cycles each) (fold (ratio)); higher = stronger signal-on switching upon ATP binding; sequences stand for … in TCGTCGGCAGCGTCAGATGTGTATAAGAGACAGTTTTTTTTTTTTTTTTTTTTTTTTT…TC
# CONDITIONS: aptamer strand: ATP DNA aptamer (quencher-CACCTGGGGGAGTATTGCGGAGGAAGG + anchor), 100 nM annealed; ATP concentration: 500 uM
QUANTITY: switch fluorescence ratio
The answer should be written as a number, with no unit following it.

Sample records with switch fluorescence ratio:
   chain_sequence  reported_value
0      ACGCAGAACG            1.36
1      ATAGTAGTCG            1.03
2      ATATTTCAGG           0.999
3      ATGTGCTCTA           0.969
4      TAGTAGGGGT               1

QUERY: Report switch fluorescence ratio for "GGAAGTGGGA" please.
RESULT: 1.02

QUERY: Report switch fluorescence ratio for "TTGGATGGTT" please.
RESULT: 1.01

QUERY: Report switch fluorescence ratio for "CGGCACGTTA" please.
RESULT: 1.06

QUERY: Report switch fluorescence ratio for "TTAAAAAAGG" please.
RESULT: 1.01

QUERY: Report switch fluorescence ratio for "GAAGGGGCAA" please.
RESULT: 1.18

QUERY: Report switch fluorescence ratio for "GCTGCTAATA" please.
RESULT: 1.04

QUERY: Report switch fluorescence ratio for "ATTAGCTTCC" please.
RESULT: 3

QUERY: Report switch fluorescence ratio for "TACGAGCCGC" please.
RESULT: 0.989

QUERY: Report switch fluorescence ratio for "GGGGCAGTTA" please.
RESULT: 1

QUERY: Report switch fluorescence ratio for "AGCGCGCGGC" please.
RESULT: 0.998

QUERY: Report switch fluorescence ratio for "GGGGGGCGTG" please.
RESULT: 0.993

QUERY: Report switch fluorescence ratio for "AATTAACGCG" please.
RESULT: 0.993

QUERY: Report switch fluorescence ratio for "GGTAGTAAGA" please.
RESULT: 1.01

Taken from the supplement of paper PMC10126150.
